B1: LINE1-mini (parent)
chain: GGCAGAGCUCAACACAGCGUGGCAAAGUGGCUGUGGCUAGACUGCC

# Variants of: B1
# ASSAY PROCEDURE: self-cleavage, relative activity (ratio to wild type); higher = more cleavage; in vitro, sequencing; the parent is a self-cleaving ribozyme
Binning of self-cleavage into classes: class A: < 0.09; class B: ≥ 0.09 and < 0.3; class C: ≥ 0.3

mutant="A14G A24G" classification="class C"
mutant="G27A C31A" classification="class C"
mutant=G7U classification="class B"
mutant="U20A G44A" classification="class C"
mutant="C3U C45A" classification="class B"
mutant="G17C U32A" classification="class A"

Inquiry: Using the reported self-cleavage, which band applies to C3A A11U ?
Reply text: class A

Inquiry: Using the reported self-cleavage, which band applies to A6U G44U ?
Reply text: class C

Inquiry: Using the reported self-cleavage, which band applies to C31A U38A ?
Reply text: class B

Inquiry: Using the reported self-cleavage, which band applies to C10U C15G ?
Reply text: class A

Inquiry: Using the reported self-cleavage, which band applies to G19C G22C ?
Reply text: class C

Inquiry: Using the reported self-cleavage, which band applies to G29C C46G ?
Reply text: class C

Inquiry: Using the reported self-cleavage, which band applies to A11U A24U ?
Reply text: class B
